Recorded values, source the array DNA melting data of Ke et al. (doi:10.1101/2024.01.08.574731).

- protocolNotes: folding enthalpy; higher = less favourable; fluorescence melt of hairpins on a sequencing array, two-state fit
- protocolConditions: sodium 0.088 M
property: folding enthalpy (kcal/mol)
Answers are plain numbers, in kcal/mol.

Field: example entries. Status: answers known.
inputSequence	displayUnit	valueMeasured
GTTCGCGGAAACGCAAAC (((.(((....))).)))	kcal/mol	-20.8
GATCGCACATGCGATC ((((((....))))))	kcal/mol	-39.8
GAGAATGGAAACATTCTC (((((((....)))))))	kcal/mol	-40.6
GATCACTGCGGTGATC ((((((....))))))	kcal/mol	-38
GGCCTCGAAAGAGATGCC ((((((....)))..)))	kcal/mol	-24.1
GCGATTGAAAAATCGC ((((((....))))))	kcal/mol	-40.7

Dear reader, for each entry below, please note its folding enthalpy.
1. GCTGCTGCGAAAGCAAGC (((..(((....))))))
2. GGTTCCGGAAACGGGACC (((.(((....))).)))
3. GATCTCGATGAGATC ((((((...))))))
4. GTAGACGAAAGTCTTTAC ((((((....)))..)))
5. GACGACGGAAACATCGTC (((((.(....).)))))
6. GCGTTGAACGC ((((...))))
7. GCGAGAGTCGC ((((...))))

[out]
1. -11.7
2. -47.1
3. -37.2
4. -10.4
5. -34.2
6. -18.2
7. -11.3

Dear reader, for each entry below, please note its folding enthalpy.
1. GATCCGATGTCGGATC ((((((....))))))
2. GCTTGCGAAAGCACAAGC ((((((....)))..)))

[out]
1: -37.6; 2: -16.1

Dear reader, for each entry below, please note its folding enthalpy.
1. GGTATGTCGAAAGACACC (((..(((....))))))
2. GGCGGCGAAAGCCGCGCC ((((((....)))..)))
3. GCGTCGCCGAAAGGCCGC (((..(((....))))))
4. GATCTGCCCTCAGATC ((((((....))))))

[out]
[-12.1, -6.34, -19.3, -42.5]

Dear reader, for each entry below, please note its folding enthalpy.
1. GGCCCCGAAAGGGAAGCC ((((((....)))..)))
2. GCTCGGCGAAAGCGGTGC ((.(.((....)).).))
3. GACCCCGAAAGGGCGGTC ((((((....)))..)))
4. GCGCCGCGAAAGCCCCGC (((..((....))..)))
5. CGCGGAAAGGTCCGCG ((((((....))))))
6. GATCTGTGCACAGATC ((((((....))))))
7. GATCCCGCGGGGATC ((((((...))))))
8. GATCGATTAATCGATC ((((((....))))))

[out]
1: -28.2; 2: -13; 3: -17.2; 4: -17.7; 5: -45.8; 6: -48.9; 7: -31.2; 8: -43.9
